As shown below, each of these sequences has a reported recombinant barcode read abundance (log10) value.
test: recombinant barcode read abundance after kanamycin selection (control-corrected) (log10(CPM+1)); higher = more efficient recombination; sequences stand for … in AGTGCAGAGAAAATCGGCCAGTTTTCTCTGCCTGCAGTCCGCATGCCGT…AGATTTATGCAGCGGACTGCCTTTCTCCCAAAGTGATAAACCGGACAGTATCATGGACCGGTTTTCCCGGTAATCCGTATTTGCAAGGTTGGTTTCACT; site = the 11-nt target;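 also: IS621 recombinase and bridge RNA in Escherichia coli cells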
Recorded metric: recombinant barcode read abundance (log10)

[
  {
    "Residue sequence": "ACCCTCCCTTGGGTTCTAACCTGTTGCTA (site ACTCTACCTTA)",
    "Val": 0.136
  },
  {
    "Residue sequence": "CTAAGGTCTTGGGTTCTAACCTGTTGCTT (site CTAAGGTCTAT)",
    "Val": 0.886
  },
  {
    "Residue sequence": "TAGGATTCTTGGGTTCTAACCTGTTGCGT (site TAGGATTCTAC)",
    "Val": 2.61
  },
  {
    "Residue sequence": "GGGGCATCTTGGGTTCTAACCTGTTGCTT (site GGGGCTTCTAA)",
    "Val": 0.0362
  },
  {
    "Residue sequence": "TAGTCCGCTTGGGTTCTAACCTGTTGCGG (site GAGTTCGCTCC)",
    "Val": 0.00991
  },
  {
    "Residue sequence": "AGTATATCTTGGGTTCTAACCTGTTGCCT (site GGCATATCTAG)",
    "Val": 0.171
  },
  {
    "Residue sequence": "ATCTGGGCTTGGGTTCTAACCTGTTGCCT (site ATCTGGGCTAG)",
    "Val": 0.0992
  },
  {
    "Residue sequence": "GAAGGCGCTTGGGTTCTAACCTGTTGCCT (site GAAGACGCTAG)",
    "Val": 0.187
  },
  {
    "Residue sequence": "GCCAGACCTTGGGTTCTAACCTGTTGCCT (site GCCATACCTAG)",
    "Val": 0.112
  },
  {
    "Residue sequence": "CTACATCCTTGGGTTCTAACCTGTTGCTT (site CTACAGCCTAA)",
    "Val": 0.0896
  },
  {
    "Residue sequence": "CCGAATCCTTGGGTTCTAACCTGTTGCCT (site CCGATTCCTAG)",
    "Val": 0.199
  },
  {
    "Residue sequence": "CGTTGATCTTGGGTTCTAACCTGTTGCCT (site CGTTGTTCTAG)",
    "Val": 0.0674
  },
  {
    "Residue sequence": "CGTATCACTTGGGTTCTAACCTGTTGCCT (site CGTATCACTAG)",
    "Val": 0.0527
  },
  {
    "Residue sequence": "ATTACCTCTTGGGTTCTAACCTGTTGCCT (site ACTACCTCTAG)",
    "Val": 0.0829
  },
  {
    "Residue sequence": "AGGTCTACTTGGGTTCTAACCTGTTGCTT (site AGGTCTACTAA)",
    "Val": 0.296
  },
  {
    "Residue sequence": "CTCTAGACTTGGGTTCTAACCTGTTGCGT (site CTCTAGACTAC)",
    "Val": 2.01
  },
  {
    "Residue sequence": "AGCGCTACTTGGGTTCTAACCTGTTGCCT (site AGCGCTACTAG)",
    "Val": 0.145
  },
  {
    "Residue sequence": "TGTCGGACTTGGGTTCTAACCTGTTGCAT (site TGTCGGACTTT)",
    "Val": 0.0384
  },
  {
    "Residue sequence": "AGCTGGGCTTGGGTTCTAACCTGTTGCCT (site ATCTGGGCTAG)",
    "Val": 0.11
  },
  {
    "Residue sequence": "TATTCACCTTGGGTTCTAACCTGTTGCCT (site GATTCACCTAG)",
    "Val": 0.0774
  },
  {
    "Residue sequence": "TAGTCGTCTTGGGTTCTAACCTGTTGCTA (site TATTTGTCTTA)",
    "Val": 0.438
  }
]
